- target_system: ABHD8; further: reference of the scale not given here
- assay_remarks: pooled miR-30 sensor sort-seq; sequence = guide strand
- stated_conditions: shRNA
measured_endpoint: sensor-assay potency score (higher = more potent)

| residue_codes | recorded_result |
| --- | --- |
| TACAAAGGTGTAGCCATCGCTG | -0.814 |
| TCACCTTGTGCACTAGGTCTGG | -0.472 |
| TTTTCCACCAGCAACCGCCCAT | -0.43 |
| TTGCGGTACACGGTGATCCGGC | -0.925 |
| TAGCGCTTGAAGATTGCTCGCA | 0.247 |
| TTTAACAGCTGCTTCTCCTTGG | 0.506 |
| AAACTTATCGTGCATGCCGTGG | -1.36 |
| TTTGCAGCTAGTGATGCGCTTC | -0.147 |
